Data origin, for the record: ChEMBL document CHEMBL1201862

- Tested on: MDA-MB-435
- experimental-protocol: NCI tumour cell line growth inhibition, 48 h
Calls of active or inactive are those of the source. Rule as the data show it: active = GI50 up to about 1.1 µM and inactive = higher.
List of GI50 values.

Recorded results for 5 compounds are shown here.
{"compound": "COc1cc(O)c2c(=O)c3c(C)cccc3n(C)c2c1", "GI50": "> 10 µM (inactive)"}
{"compound": "O=c1c2ccccc2nc(N/N=C/c2ccccc2O)n1-c1ccccc1", "GI50": "4.71 µM (inactive)"}
{"compound": "O=S(=O)(O)c1cc(Nc2ccnc3ccccc23)c2c(S(=O)(=O)O)cc(S(=O)(=O)O)cc2c1", "GI50": "> 100 µM (inactive)"}
{"compound": "C[C@@]1(O)C2CC3CC1(c1ccccc1)CC(/C3=N/O)/C2=N\\O (stereo partly specified)", "GI50": "> 100 µM (inactive)"}
{"compound": "CN1CC2=C(N=C(S)NC2c2ccc(Cl)cc2)/C(=C/c2ccc(Cl)cc2)C1 (stereo unspecified)", "GI50": "14.9 µM (inactive)"}

Attention now shifts to the item below.
// query GI50 value for entry CC(C)(C)OC(=O)N(O)CCCn1cnc2c(NC3CC3)ncnc21 > 100 µM (inactive)
